- assaySummary: MM1S myeloma cell viability, profiling panel, resazurin fluorescence, basal, 24 h, PK04 Diversity Set (AID 1174);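 note: MM1S multiple myeloma cell line; test concentration not given here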
- measurementSetup: higher = more signal, called active from +8 up or from −8 down
Calls of active or inactive are those of the source.
Can you tell me z-score for the items I'm about to list?

So what's the measured z-score for this one? `O=C1[C@H]2[C@H]3[C@H](O)[C@H](O)CC(=NOC[C@@H](O)COCc4ccco4)[C@@H]3CC[C@H]2C(=O)N1c1cccc(Oc2ccccc2)c1`
0.25 (inactive)

So what's the measured z-score for this one? `CC(=O)OC[C@H]1O[C@@H](ON=C(C)CCC(=O)OC[C@H]2O[C@H](C#Cc3ccccc3)C=C[C@@H]2Oc2ccc(C)cc2)[C@H](OC(C)=O)[C@@H](OC(C)=O)[C@@H]1OC(C)=O`
0.364 (inactive)

So what's the measured z-score for this one? `COC(=O)CC=C[C@@H](C)[C@@H](C=NOC[C@@H](O)[C@H]1O[C@@H]2OC(C)(C)O[C@@H]2[C@H]1O)OC`
-0.311 (inactive)

So what's the measured z-score for this one? CCOC(=O)[C@H](Cc1ccccc1)NC(=O)CCC1CC(OC(=O)NCc2cccc3ccccc23)CC2(CCCC(COC(=O)NCCOc3ccccc3)O2)O1 (stereo not given in full)
1.41 (inactive)

So what's the measured z-score for this one? `CO[C@H]1COC(=O)CCC[C@H](C)[C@H](OC)COC(=O)CC=C[C@@H]1C`
0.364 (inactive)

So what's the measured z-score for this one? `Cc1ccc2[nH]c3nc(CCCn4ccnc4-c4ccccc4)nnc3c2c1`
-1.15 (inactive)

So what's the measured z-score for this one? `CC(C)[C@@H](OCc1ccccc1)[C@H](C)CON=C1[C@H]2CCn3c(=O)n(-c4ccccc4)c(=O)n3[C@H]2[C@H](O)[C@@H]2O[C@H]12`
-0.704 (inactive)

So what's the measured z-score for this one? `O=C1[C@H]2[C@H]3[C@H](O)[C@H](O)CC(=NO[C@@H]4O[C@H](CO)[C@@H](O)[C@H](O)[C@H]4O)[C@H]3CC[C@H]2C(=O)N1C[C@@H]1CCCO1`
-1.45 (inactive)

So what's the measured z-score for this one? `CC(CCN1CCCc2nc(C)c(C)cc21)=NO[C@@H](C)c1cn([C@H](CO)Cc2ccccc2)nn1`
0.0688 (inactive)

So what's the measured z-score for this one? CCOC(=O)[C@H](CC(C)C)NC(=O)CCC1CC(OC(=O)NCc2ccc3c(c2)OCO3)CC2(CCCC(COC(=O)NCCOC)O2)O1 (stereo not given in full)
0.982 (inactive)

So what's the measured z-score for this one? `CC(C)(C)N1C(=O)[C@H]2[C@H]3[C@H](O)[C@H](O)CC(=NOC[C@@H](O)COCc4ccco4)[C@H]3CC[C@H]2C1=O`
-0.622 (inactive)

So what's the measured z-score for this one? `O=C1C[C@@H](O)[C@@H](O)[C@@H]2[C@@H]3C(=O)N(Cc4ccccc4)C(=O)[C@@H]3CC[C@H]12`
-0.136 (inactive)

So what's the measured z-score for this one? `CC(C)CON=C1C[C@@H](O)[C@@H](O)[C@@H]2[C@@H]3C(=O)N(C(C)(C)C)C(=O)[C@@H]3CC[C@@H]12`
0.4 (inactive)

So what's the measured z-score for this one? CCOC(=O)[C@H](Cc1ccccc1)NC(=O)CCC1CC(OC(=O)NCc2cccc3ccccc23)CC2(CCCC(COC(=O)NCCc3ccc(Cl)cc3)O2)O1 (stereo not given in full)
0.768 (inactive)

So what's the measured z-score for this one? `C=CC[C@@H]1C=C[C@H](ON=CC[C@@H]2C=C[C@H](OC(C)=O)[C@@H](COC(C)=O)O2)[C@@H](CO)O1`
-1.23 (inactive)

So what's the measured z-score for this one? `COc1cccc([C@H]2Oc3ccc(OC)cc3C(=NO[C@@H](C)c3cc(-c4c(C)cc(C)cc4C)no3)[C@@H]2O)c1`
0.0117 (inactive)

So what's the measured z-score for this one? `COC(=O)[C@H](CCSC)NC(=O)CC=C[C@@H](C)CO`
0.311 (inactive)

So what's the measured z-score for this one? `C[C@@H]1C=CCC(=O)OC[C@H](C)C(=O)N[C@@H](Cc2ccccc2)C(=O)OC1`
0.489 (inactive)

So what's the measured z-score for this one? `COc1ccc(O[C@H]2C=C[C@@H](c3ccccc3)O[C@@H]2CO)cc1`
0.222 (inactive)

So what's the measured z-score for this one? `COc1ccc(O[C@H]2C=C[C@@H](c3ccccc3)O[C@@H]2COC(=O)NCc2cccc3ccccc23)cc1`
-0.079 (inactive)

So what's the measured z-score for this one? `C=CC[C@@H]1C=C[C@H](ON=C(C)CCN2CCCc3nc(C)c(C)cc32)[C@@H](CO)O1`
-0.0956 (inactive)

So what's the measured z-score for this one? `C[C@H]1C=CCC(=O)OC[C@H](C)C(=O)N2CCC[C@H]2C(=O)OC1`
-0.0106 (inactive)

So what's the measured z-score for this one? O=C1CCCC=C1C(O)COCc1ccccc1 (stereo not given)
-0.155 (inactive)

So what's the measured z-score for this one? `C=CC[C@@H]1C=C[C@H](ON=C2C[C@@H](O)[C@@H](O)[C@@H]3[C@@H]4C(=O)N(CC)C(=O)[C@@H]4CC[C@@H]23)[C@@H](CO)O1`
-0.415 (inactive)

So what's the measured z-score for this one? COC(=O)[C@H](C)NC(=O)CCC1CC(OC(=O)NCCc2ccc(F)cc2)CC2(CCCC(COC(=O)NCC3CCCCC3)O2)O1 (stereo not given in full)
1.05 (inactive)

So what's the measured z-score for this one? CCOC(=O)[C@H](Cc1ccccc1)NC(=O)CCC1CC(OC(=O)NCCc2ccc(F)cc2)CC2(CCCC(COC(=O)NCCC(C)C)O2)O1 (stereo not given in full)
0.129 (inactive)

So what's the measured z-score for this one? `CCN1C(=O)[C@H]2[C@H]3[C@H](O)[C@H](O)CC(=NNC(=O)OCc4ccccc4)[C@@H]3CC[C@H]2C1=O`
-0.453 (inactive)

So what's the measured z-score for this one? COC(=O)[C@H](C)NC(=O)CCC1CC(OC(=O)NCc2cccc3ccccc23)CC2(CCCC(COC(=O)NCCOc3ccccc3)O2)O1 (stereo not given in full)
0.875 (inactive)

So what's the measured z-score for this one? `CC(C)CON=C1C[C@@H](O)[C@@H](O)[C@@H]2[C@@H]3C(=O)N(c4ccc(F)cc4F)C(=O)[C@@H]3CC[C@@H]12`
0.88 (inactive)

So what's the measured z-score for this one? `CC(C)(C)N1C(=O)[C@H]2[C@@H]3C(=CC[C@H]2C1=O)C(=O)[C@H]1O[C@H]1[C@H]3O`
-7.59 (inactive)

----------
- targetDesc: Fibroblast growth factor 2 (Homo sapiens) (UniProt P09038)
- Sequence (P09038 whole entry, looked up): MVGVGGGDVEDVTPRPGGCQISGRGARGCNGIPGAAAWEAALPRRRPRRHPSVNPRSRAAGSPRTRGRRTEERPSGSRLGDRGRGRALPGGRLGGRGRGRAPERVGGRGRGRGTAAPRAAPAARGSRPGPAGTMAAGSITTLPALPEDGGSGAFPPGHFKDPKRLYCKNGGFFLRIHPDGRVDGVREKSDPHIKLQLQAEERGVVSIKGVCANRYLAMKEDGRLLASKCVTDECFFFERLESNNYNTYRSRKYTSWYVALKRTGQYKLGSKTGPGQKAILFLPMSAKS
- assaySummary: FGF2 binders on small-molecule microarrays, primary screen, biochemical, small-molecule microarray, 635/667 nm fluorescence (AID 1133)
- measurementSetup: small-molecule microarray binding, FGF2, fluorescence 635/667; higher = more signal
Can you tell me composite z-score for the items I'm about to list?
Reply with the value as a number alone.

So what's the measured composite z-score for this one? COC(=O)[C@H](C)NC(=O)CCC1CC(OC(=O)NCc2ccc3c(c2)OCO3)CC2(CCCC(COC(=O)NCCCN3CCCC3=O)O2)O1 (stereo not given in full)
1.42

So what's the measured composite z-score for this one? `COCOc1ccc(Br)cc1C(=O)C=Cc1ccc2c(c1)OCO2`
0.449

So what's the measured composite z-score for this one? `C[C@H]1CC[C@H]2C(=O)O[C@H](CO)CN2[C@@H]1c1ccc(Br)cc1`
0.103

So what's the measured composite z-score for this one? `C=CC[C@@H]1C=C[C@H](ON=C2C[C@@H](O)[C@@H](O)[C@@H]3[C@@H]4C(=O)N(CC)C(=O)[C@@H]4CC[C@@H]23)[C@@H](CO)O1`
0.119

So what's the measured composite z-score for this one? `CC(C)=CCCC(C)=CCON=C1C[C@@H](O)[C@@H](O)[C@@H]2[C@@H]3C(=O)N(c4cccc(Oc5ccccc5)c4)C(=O)[C@@H]3CC[C@H]12`
0.252

So what's the measured composite z-score for this one? `COc1ccc(O[C@H]2C=C[C@@H](c3ccccc3)O[C@@H]2COC(=O)CCC(C)=NOC[C@@H](O)COCc2ccco2)cc1`
-2.63

So what's the measured composite z-score for this one? `CCN1C(=O)[C@H]2[C@H]3[C@H](O)[C@H](O)CC(=NOC[C@@H](O)[C@H]4O[C@@H]5OC(C)(C)O[C@@H]5[C@H]4O)[C@@H]3CC[C@H]2C1=O`
0.383

So what's the measured composite z-score for this one? `CCN1C(=O)[C@H]2[C@H]3[C@H](O)[C@H](O)CC(=NOCC[C@@H]4C=C[C@H](OC(C)=O)[C@@H](COC(C)=O)O4)[C@@H]3CC[C@H]2C1=O`
0.419

So what's the measured composite z-score for this one? C=CCOCC1CN2[C@@H](CC[C@@H](C)[C@@H]2c2ccc(Br)cc2)C(=O)O1 (stereo not given in full)
0.166

So what's the measured composite z-score for this one? `COC(=O)[C@@H]1CC[C@H](C)[C@@H](c2ccc(Br)cc2)N1C[C@@H](O)CN=[N+]=[N-]`
0.4

So what's the measured composite z-score for this one? `CCc1cc2c(nc1CC)CCN(CCC(C)=NOC[C@@H](C)[C@H](OCc1ccccc1)C(C)C)C2`
-1.39

So what's the measured composite z-score for this one? `CCN1C(=O)[C@H]2[C@H]3[C@H](O)[C@H](O)CC(=NO[C@H](C)c4cn([C@@H]5COC[C@H]5O)nn4)[C@@H]3CC[C@H]2C1=O`
0.092

So what's the measured composite z-score for this one? COC(=O)C(C(=O)OC)C1CCCC(=O)C1 (stereo not given)
0.692

So what's the measured composite z-score for this one? `O=C1[C@H]2[C@H]3[C@H](O)[C@H](O)CC(=NOC[C@@H](O)COCc4ccco4)[C@@H]3CC[C@H]2C(=O)N1c1cccc(Oc2ccccc2)c1`
0.285

So what's the measured composite z-score for this one? CCOC(=O)[C@H](Cc1ccccc1)NC(=O)CCC1CC(OC(=O)NCCc2ccc(F)cc2)CC2(CCCC(COC(=O)NCc3cccc(C(F)(F)F)c3)O2)O1 (stereo not given in full)
0.696
